Where do these numbers come from? They come from patent US8143301B2.

Test system: HCV 1b genotype
Experiment: HCV Replicon assay, 1b genotype
Format: cell-based
Conditions: Hepatitis C virus; HCV 1b genotype replicon; read-out: 1b EC50 in Range
Experimental: An HCV Replicon assay was utilized in the present disclosure, and was prepared, conducted and validated as described in commonly owned PCT/US2006/022197 and in O'Boyle et. al. Antimicrob Agents Chemother. 2005 April; 49(4):1346-53. Assay methods incorporating luciferase reporters have also been used as described (Apath.com). HCV-neo replicon cells and replicon cells containing mutations in the NS5A region were used to test the currently described family of compounds. […]
pEC50: −log10 of the molar value.
measurement-type: pEC50

Example entries and their recorded answers appear below.
COC(=O)N[C@H](C(=O)N1CCCN1c1nc(-c2ccc(-c3ccc(-c4c[nH]c(N5CCCN5C(=O)[C@@H](NC(=O)OC)C(C)C)n4)cc3)cc2)c[nH]1)C(C)C	7.00 to 9.00
COC(=O)N[C@H](C(=O)N1[C@H](c2ncc(-c3ccc(C#Cc4ccc(-c5cnc([C@@H]6CCN(C)N6C(=O)[C@@H](NC(=O)OC)C(C)C)[nH]5)cc4)cc3)[nH]2)CCN1C)C(C)C	9.00 to 10.00
O=C(OCc1ccccc1)N1CCCN1c1nc(-c2ccc(-c3ccc(-c4c[nH]c(N5CCCN5C(=O)OCc5ccccc5)n4)cc3)cc2)c[nH]1	7.00 to 9.00

// moving on: another record for pEC50
Data point: COC(=O)N[C@@H](C(=O)N1CCCN1c1nc(-c2ccc(-c3ccc(-c4c[nH]c(N5CCCN5C(=O)[C@H](NC(=O)OC)c5ccccc5)n4)cc3)cc2)c[nH]1)c1ccccc1 ; pEC50 = 9.00 to 10.00
